The reported numbers originate from ChEMBL document CHEMBL4689842.

The following compounds are listed with their measured Growth Rate values.
tested on: HEK-293T; test: Incucyte cell viability with HEK293T; assay type: toxicity, cell-based; conditions: human, 18 h, 10 µM, compound concentration 10 uM, replicate number 1, timepoint 18 hours; further: filed as whole numbers so only -1 and 0 and 1 occur
Number, no unit, nothing else.

Recorded results for 2 compounds are shown here.
Cc1nnn(-c2ccc(-c3ccc(C4(C(=O)O)CC4)cc3)cc2)c1NC(=O)O[C@H](C)c1ccccc1    0
CC(=O)c1c(NS(C)(=O)=O)c2cc(-c3ccc(Cl)cc3)c(-c3ccc(Cl)cc3Cl)nc2n(C)c1=O    0

Turning to the following compound.
Exercise: Recall and state the measured Growth Rate for CO[C@@H](C)c1c(Nc2ccc([C@@H](N(C)C(=O)C3CCS(=O)(=O)CC3)C(F)(F)F)cc2)cnc2cc(Cl)nn12 .
Solution: 0

----------
test system: U2OS; assay: Multiplex assay against U2OS; assay type: toxicity, cell-based; conditions: human, 24 h, 10 µM, compound concentration 10 uM, replicate 2
Answer FALSE if Population Healthy Nuclei (%) is under 60%, and TRUE if it is 60% or more.

S=C(NCCCc1c[nH]cn1)NCCCN(Cc1ccc(Cl)c(Cl)c1)c1ccc(Br)cn1    FALSE
COc1cc(N2CCN(C)CC2)ccc1Nc1ncc2c(n1)N(C)c1ccccc1C(=O)N2C    TRUE
COC(=N)c1nc2ccc3ncnc(Nc4ccc(OC)cc4F)c3c2s1    TRUE

Exercise: // inclusive: Population Healthy Nuclei (%) at least 60%? input: O=C1NC(=O)C(c2cnc3ccccn23)=C1c1cn2c3c(cc(F)cc13)CN(C(=O)N1CCCCC1)CC2 [LY-2090314]
Solution: TRUE

Exercise: Could you please find out whether CCc1cccc(CC)c1NC(=O)c1nn(C)c2c1CCc1cnc(Nc3ccc(C(=O)NC4CCN(C)CC4)cc3OC(F)(F)F)nc1-2 has Population Healthy Nuclei (%) that meets 60% or exceeds it?
Solution: TRUE

Exercise: Item C=CCn1c(=O)c2cnc(Nc3ccc(N4CCN(C)CC4)cc3)nc2n1-c1cccc(C(C)(C)O)n1 [ADAVOSERTIB] with Population Healthy Nuclei (%) of 60% or above?
Solution: FALSE

Exercise: Reported Population Healthy Nuclei (%) reaches at least 60% for CCN1CCN(Cc2ccc(Nc3ncc(F)c(-c4cc(F)c5nc(C)n(C(C)C)c5c4)n3)nc2)CC1.CS(=O)(=O)O ?
Solution: FALSE

Exercise: Textbook exercise: given the entry Cc1cn(-c2cc(NC(=O)c3ccc(C)c(Nc4nccc(-c5cccnc5)n4)c3)cc(C(F)(F)F)c2)cn1 [NILOTINIB] , state whether its Population Healthy Nuclei (%) is greater than or equal to 60%.
Solution: TRUE

----------
tested on: HEK-293T; test: Incucyte cell viability with HEK293T; type: toxicity, cell-based; conditions: human, 0 h, 10 µM, compound concentration 10 uM, replicate number 2, timepoint 0 hours; further: filed as whole numbers so only -1 and 0 and 1 occur
READOUT NAME: Growth Rate
When you answer, write just the number.

Exercise: Determine from records and report Growth Rate for CC[C@@H]1CN2C(=O)N(C)c3nc(-c4ccccc4)[nH]c3C2=N1.Cl
Solution: 0

Exercise: Read the entry O=C(Nc1cccnn1)N1CCC(=Cc2cccc(Oc3ccc(C(F)(F)F)cn3)c2)CC1 and write its reported Growth Rate.
Solution: 1

Exercise: Give the reported Growth Rate for this compound. C[C@@H]1CN(c2cc(-c3n[nH]c4ccc(OC5(C)CC5)cc34)ncn2)C[C@H](C)O1 [MLi-2]
Solution: 1

Exercise: Fill in reported Growth Rate for this entry: CCc1cccc(CC)c1NC(=O)c1nn(C)c2c1CCc1cnc(Nc3ccc(N4CCN(C)CC4)cc3OC)nc1-2
Solution: 0

Exercise: Entry CC(C)(Sc1ccc(CCN(CCCCC2CCCCC2)C(=O)NC2CCCCC2)cc1)C(=O)O [GW7647] needs its Growth Rate filled in; supply it.
Solution: 0

Exercise: Return Growth Rate for the following compound: O=c1ccn([C@@H]2O[C@H](COP(=O)([O-])OP(=O)([O-])O)[C@@H](O)[C@H]2O)c(=O)[nH]1.[Na+].[Na+]
Solution: 0

Exercise: Name the recorded Growth Rate of the item CNC(=O)c1ccc(Nc2nc(OC3CCCC3)c3c(-c4ccc5nc(C)oc5c4)c[nH]c3n2)c(OC)c1 in your answer.
Solution: 1
